For each of the compounds below, state its IC50.
assay system: wildtype HIV-1 protease (Human immunodeficiency virus type 1 group M subtype B, UniProt P04585)
Construct: the wildtype HIV-1 protease (which was expressed in Escherichia coli); made in house; host or cells: Escherichia coli
test name: Assay for inhibition of microbial expressed HIV protease (Pepcleav)
Assay type: biochemical
details: wild type HIV-1 protease expressed in E. coli, peptide substrate, pH 5.5; mean of at least two independent experiments; read-out: Pepcleav
Counter-ions that a name gives are not always drawn.
Write the answer as a number in nM, unit excluded.

# get_value(readout='IC50', item= "N[C@H](C(=O)Nc1cccc(C(F)(F)F)c1CC[C@@H]1CN[C@H](COC(=O)NCC(F)(F)F)CO1)C(c1ccccc1)c1ccccc1" ) 110

Now consider "NC(=O)OC[C@@H]1CO[C@H](COc2c(F)cncc2NC(=O)[C@@H](N)C(c2ccc(F)cc2)c2ccc(F)cc2)CN1" . 21

Now consider N[C@H](C(=O)Nc1cccc(F)c1CC[C@@H]1CN[C@H](COC(=O)NCC(F)(F)F)CO1)C(c1ccc(F)cc1)c1ccc(F)cc1 [Example 80, dihydrochloride] . 9.4

Now consider "NC(=O)OC[C@@H]1CO[C@H](CCc2c(F)cccc2NC(=O)C[C@@H](c2ccc(F)cc2)c2ccc(F)cc2F)CN1" . 10

Now consider "N[C@@H](Cc1cccc2ccccc12)C(=O)Nc1cncc(F)c1CC[C@@H]1CN[C@H](COC(=O)NCC(F)(F)F)CO1" . 510

Now consider "COC(=O)N[C@H](C(=O)Nc1ccccc1CC[C@@H]1CN[C@H](C(=O)NS(=O)(=O)c2ccccc2)CO1)C(c1ccccc1)c1ccccc1" . 17

Now consider "COC(=O)N[C@H](C(=O)Nc1cncnc1CC[C@@H]1CN[C@H](COC(=O)NCc2ccc(F)cc2)CO1)C(c1ccccc1)c1ccccc1" . 24

Now consider "COC(=O)N[C@H](C(=O)Nc1ccccc1CC[C@@H]1CN[C@H](CNS(=O)(=O)Cc2ccccc2)CO1)C(c1ccccc1)c1ccccc1" . 49

Now consider "CCC[C@H](c1ccccc1)[C@H](NC(=O)OC)C(=O)Nc1cccc(F)c1CC[C@@H]1CN[C@H](COC(=O)NCC(F)(F)F)CO1" . 100

Now consider "CS(=O)(=O)CC[C@@H]1CO[C@H](COc2c(F)cccc2NC(=O)[C@@H](N)C(c2ccccc2)c2ccccc2)CN1" . 150

Now consider "COC(=O)N[C@H](C(=O)Nc1ccccc1CC[C@@H]1CN[C@H](COC(=O)NCc2ccccc2F)CO1)C(c1ccccc1)c1ccccc1" . 3.6

Now consider "COC(=O)N[C@H](C(=O)Nc1ccccc1CC[C@@H]1CN[C@H](CNS(=O)(=O)C2CC2)CO1)C(c1ccccc1)c1ccccc1" . 84
